# Tested on: MDA-MB-435
# assay.summary: NCI tumour cell line growth inhibition, 48 h
Calls of active or inactive are those of the source. No stated cut-off is given here; in the data, active = GI50 up to about 1.1 µM and inactive = higher.
The entries below are paired with their reported GI50.

Some compounds with known GI50 results, for comparison:
compound="CC1=CCC[C@@](C)(O)[C@@H]2C[C@H]3C(CSc4ccccc4)C(=O)O[C@H]3[C@@H](O2)[C@H](C)CCC1 (stereo partly specified)" reported_endpoint=GI50 val="20.3 µM (inactive)"
compound="COC1C=C(NCC2(CO)CCC2)N=C(N)N1 (stereo unspecified)" reported_endpoint=GI50 val="> 100 µM (inactive)"
compound="Cc1ccccc1-n1c(=O)c2ncn(C3CCCO3)c2n(-c2ccccc2C)c1=S (stereo unspecified)" reported_endpoint=GI50 val="> 100 µM (inactive)"

Let's switch to this compound now.
GI50 for CC(=N\N)/C(C)=N/N=C(C)/C(C)=N/N=C(C)/C(C)=N/N=C(C)/C(C)=N/N is > 100 µM (inactive)
